# target or test system: cloned human 5-HT6 receptor (Homo sapiens)
# Construct: membrane preparation
# Sequence (P50406 whole entry): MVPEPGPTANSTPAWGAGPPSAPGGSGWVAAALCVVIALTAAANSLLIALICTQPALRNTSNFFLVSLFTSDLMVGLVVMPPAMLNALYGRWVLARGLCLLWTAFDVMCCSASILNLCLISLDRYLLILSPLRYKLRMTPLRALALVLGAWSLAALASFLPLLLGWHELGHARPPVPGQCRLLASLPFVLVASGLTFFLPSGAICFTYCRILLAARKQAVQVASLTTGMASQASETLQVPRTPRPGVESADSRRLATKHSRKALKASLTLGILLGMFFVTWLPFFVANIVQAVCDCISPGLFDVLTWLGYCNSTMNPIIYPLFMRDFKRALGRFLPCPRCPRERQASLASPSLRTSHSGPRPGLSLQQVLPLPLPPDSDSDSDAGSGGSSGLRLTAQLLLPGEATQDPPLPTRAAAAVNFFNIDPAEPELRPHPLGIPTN
# test name: 5-HT6 receptor binding assay ([3H]-LSD radioligand, SPA beads)
# protocol conditions: membranes of Hela cells containing cloned human 5-HT6 receptor, IC50 converted to Ki by Cheng-Prusoff
experimental readout: Ki (nM)

Nc1cc(N2CCCNCC2)ccc1S(=O)(=O)c1ccc(F)c(F)c1 | 79
Nc1cc(N2CCCNCC2)ccc1S(=O)(=O)c1ccccc1 | 11
CN1CCN(c2ccc(S(=O)(=O)c3ccc(F)cc3)c(N)c2)CC1.Cl | 32

[1] Cc1ccc(S(=O)(=O)c2ccc(N3CCNCC3)cc2N)cc1
[2] Nc1cc(N2CCCNCC2)ccc1S(=O)(=O)c1cc(F)cc(F)c1
[3] Cc1ccc(S(=O)(=O)c2ccc(N3CCN(C)CC3)cc2N)cc1
[4] CN1CCN(c2ccc(S(=O)(=O)c3cccc(F)c3)c(N)c2)CC1.Cl
[5] Nc1cc(N2CCNCC2)ccc1S(=O)(=O)c1ccccc1
Task: rank_up(items): orders items by reported Ki in ascending numerical order. Return value: ordered labels per request.
Result: 5, 4, 2, 1, 3
(5: 2.6 nM, 4: 5.2 nM, 2: 11 nM, 1: 23 nM, 3: 68 nM)

Each recorded value in this set is attributed to patent US6586592B2.
